tested on: uninfected MT-4 cells; experiment: Test B: Cytotoxicity Assay; format: cell-based; settings: uninfected MT-4 cells, same protocol as Test A, 5 days; read-out: CC50
Flag rule - CC50 less than 10 µM flags 1; the remaining entries get -1.

compound	classLabel
Cn1nc(NS(C)(=O)=O)c2c(Cl)ccc(-c3ccc(C#CC(C)(C)O)nc3[C@H](Cc3cc(F)cc(F)c3)NC(=O)Cn3nc(Cl)c4c3C(F)(F)[C@@H]3C[C@H]43)c21	-1
CC(C)(O)C#Cc1ccc(-c2cccc3c2CNC3=O)c([C@H](Cc2cc(F)cc(F)c2)NC(=O)Cn2nc(C(F)(F)F)c3c2C(F)(F)[C@@H]2C[C@H]32)n1	-1
Cn1nc(NS(C)(=O)=O)c2c(Cl)ccc(-c3ccc(C#CC(C)(C)N)nc3[C@H](Cc3cc(F)cc(F)c3)NC(=O)Cn3nc(C(F)F)c4c3C(F)(F)[C@@H]3C[C@H]43)c21 [Compound 128B]	1
Cn1nc(NS(C)(=O)=O)c2c(Cl)ccc(-c3ccc(C#CC(C)(C)O)nc3[C@H](Cc3cc(F)cc(F)c3)NC(=O)Cn3ncc4c3C(F)(F)[C@@H]3C[C@H]43)c21	-1
Cc1nc(NS(C)(=O)=O)c2cccc(-c3ccc(C#CC(C)(C)O)nc3[C@H](Cc3cc(F)cc(F)c3)NC(=O)Cn3nc(C(F)F)c4c3C(F)(F)[C@@H]3C[C@H]43)n12 [Compound 120H]	-1
Cn1nc(NS(C)(=O)=O)c2c(Cl)ccc(-c3ccc(C#CC(C)(C)N)nc3[C@H](Cc3cc(F)cc(F)c3)NC(=O)Cn3nc(C(F)F)c4c3C(F)(F)[C@@H]3C[C@H]43)c21 [Compound 127]	1

Data credit: patent US9951043B2
